Biological target: IKZF2 (Homo sapiens, UniProt Q96SW2+Q9UKS7)
Sequence (Q9UKS7 1-500 isoform Q9UKS7-2): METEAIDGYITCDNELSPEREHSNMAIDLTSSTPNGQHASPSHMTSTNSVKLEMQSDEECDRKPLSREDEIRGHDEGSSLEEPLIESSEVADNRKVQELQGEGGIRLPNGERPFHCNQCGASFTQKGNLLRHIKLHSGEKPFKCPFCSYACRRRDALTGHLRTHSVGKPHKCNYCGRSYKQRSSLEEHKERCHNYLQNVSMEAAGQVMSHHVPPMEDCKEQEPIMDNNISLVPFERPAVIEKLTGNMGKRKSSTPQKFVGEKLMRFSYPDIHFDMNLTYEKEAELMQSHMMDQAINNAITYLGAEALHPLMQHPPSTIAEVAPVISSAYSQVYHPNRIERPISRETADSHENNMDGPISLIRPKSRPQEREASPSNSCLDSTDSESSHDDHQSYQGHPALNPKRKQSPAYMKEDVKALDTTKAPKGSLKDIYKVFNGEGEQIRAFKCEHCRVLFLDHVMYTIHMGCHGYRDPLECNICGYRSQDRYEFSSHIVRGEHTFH
Sequence (Q96SW2 whole entry): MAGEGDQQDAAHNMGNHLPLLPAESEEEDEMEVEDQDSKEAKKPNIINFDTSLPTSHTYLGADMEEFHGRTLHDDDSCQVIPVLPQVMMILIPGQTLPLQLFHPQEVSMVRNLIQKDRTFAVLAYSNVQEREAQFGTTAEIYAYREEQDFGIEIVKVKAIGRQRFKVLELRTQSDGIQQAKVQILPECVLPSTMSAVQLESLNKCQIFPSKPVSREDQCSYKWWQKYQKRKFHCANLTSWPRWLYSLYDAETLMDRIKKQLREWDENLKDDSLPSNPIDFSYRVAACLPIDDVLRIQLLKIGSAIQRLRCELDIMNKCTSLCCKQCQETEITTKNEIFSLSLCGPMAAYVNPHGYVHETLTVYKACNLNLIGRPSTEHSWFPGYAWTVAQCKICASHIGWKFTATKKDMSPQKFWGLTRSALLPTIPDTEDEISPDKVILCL
Sequence (Q16531 whole entry partner): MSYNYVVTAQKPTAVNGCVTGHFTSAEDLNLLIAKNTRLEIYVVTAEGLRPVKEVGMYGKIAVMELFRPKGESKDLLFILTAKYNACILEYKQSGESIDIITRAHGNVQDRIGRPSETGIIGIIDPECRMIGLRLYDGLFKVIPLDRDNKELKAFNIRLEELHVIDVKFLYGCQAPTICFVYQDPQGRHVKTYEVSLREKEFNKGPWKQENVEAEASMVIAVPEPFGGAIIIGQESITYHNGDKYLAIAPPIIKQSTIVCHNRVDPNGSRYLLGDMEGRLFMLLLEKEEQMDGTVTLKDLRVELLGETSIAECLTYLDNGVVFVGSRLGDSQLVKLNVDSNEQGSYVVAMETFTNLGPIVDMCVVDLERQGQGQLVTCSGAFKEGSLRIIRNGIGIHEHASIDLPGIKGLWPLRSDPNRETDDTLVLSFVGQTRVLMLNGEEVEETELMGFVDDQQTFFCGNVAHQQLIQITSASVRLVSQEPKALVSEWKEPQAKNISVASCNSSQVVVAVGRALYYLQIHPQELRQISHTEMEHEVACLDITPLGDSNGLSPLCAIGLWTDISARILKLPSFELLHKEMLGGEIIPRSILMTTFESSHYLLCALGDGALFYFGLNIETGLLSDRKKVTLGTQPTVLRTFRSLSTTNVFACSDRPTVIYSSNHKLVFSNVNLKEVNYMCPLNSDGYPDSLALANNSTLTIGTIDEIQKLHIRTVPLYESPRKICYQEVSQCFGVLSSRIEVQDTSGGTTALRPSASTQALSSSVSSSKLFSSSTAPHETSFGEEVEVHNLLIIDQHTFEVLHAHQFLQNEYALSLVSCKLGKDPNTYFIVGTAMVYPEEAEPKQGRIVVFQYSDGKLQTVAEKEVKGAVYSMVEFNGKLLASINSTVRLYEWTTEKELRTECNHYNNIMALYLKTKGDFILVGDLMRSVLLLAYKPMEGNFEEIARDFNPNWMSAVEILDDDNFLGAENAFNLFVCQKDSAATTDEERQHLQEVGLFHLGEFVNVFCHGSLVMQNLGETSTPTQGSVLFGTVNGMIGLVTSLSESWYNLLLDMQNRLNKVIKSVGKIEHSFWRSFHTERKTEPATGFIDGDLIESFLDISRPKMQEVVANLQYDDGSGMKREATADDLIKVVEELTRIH
Assay: HEK293 HiBiT in vitro degradation of IKZF2
Type: cell-based
Design: expressed in transfected cells
Settings: HEK293 HiBiT, 18-24 hr incubation, normalized to DMSO control; read-out: IKZF2 EC50
Entries and their DC50 values follow.
Report the figure in nM without appending any unit label.

Examples from the recorded data:
Task: # get_value(readout='DC50', item= CC1(C)OCC(N[C@H]2CCCC[C@@H]2Cc2ccc3c(c2)CN(C2CCC(=O)NC2=O)C3=O)CO1 (stereo partly drawn) [Example 161] )
Result: 95

Task: So what does the record say about DC50 for CC(C)(C#N)CCN[C@H]1CCCC[C@@H]1Cc1ccc2c(c1)CN(C1CCC(=O)NC1=O)C2=O (stereo partly drawn) [Example 133] ?
Result: 32

Task: Suppose we examine the compound O=C1CCC(N2Cc3cc(C[C@H]4CCCC[C@@H]4NCc4ccccc4Cl)ccc3C2=O)C(=O)N1 (stereo partly drawn) [Example 3] ; what DC50 value has been reported?
Result: 19

---
Task: For the compound C[C@@]1(O)CC[C@H](NC2CCC(F)(F)CC2)[C@@H](Cc2ccc3c(c2)CN(C2CCC(=O)NC2=O)C3=O)C1 (stereo partly drawn) [Example 154] , what DC50 is on record?
Result: 114

Task: Sample CC(C)N[C@H]1CCCC[C@@H]1Cc1ccc2c(c1F)CN(C1CCC(=O)NC1=O)C2=O (stereo partly drawn) [Example 85] — what was its DC50?
Result: 2

Task: Find the recorded DC50 belonging to O=C1CCC(N2Cc3c(ccc(C[C@H]4CCCC[C@@H]4NC4CCOC4)c3F)C2=O)C(=O)N1 (stereo partly drawn) [Example 190] and report it.
Result: 2

###

Collected Dmax values appear next to each entry.
Target: IKZF2 (Homo sapiens, UniProt Q96SW2+Q9UKS7)
Assay: HEK293 HiBiT in vitro degradation of IKZF2
Type: cell-based
Set-up: expressed in transfected cells
Settings: HEK293, HEK293 HiBiT; maximum degradation at the highest concentration tested
All answers are understood in %, so give the number only.

The examples below pair each entry with its known result.
Task: Given the compound O=C1CCC(N2Cc3cc(C[C@H]4CCCC[C@@H]4NCC4COC4)ccc3C2=O)C(=O)N1 (some centres unmarked) [Example 68] , what is its reported Dmax?
Result: 91

Task: I'd like to know its Dmax. The compound in question is CC(N[C@H]1CCCC[C@@H]1Cc1ccc2c(c1F)CN(C1CCC(=O)NC1=O)C2=O)C1CCOCC1 (single isomer, unassigned) [Example 287]
Result: 95

Task: Recorded Dmax of O=C1CCC(N2Cc3cc(C[C@H]4CCC[C@H](O)[C@@H]4NC4CCCCC4)ccc3C2=O)C(=O)N1 (relative stereo) [Example 310] , please.
Result: 90

Task: Query: Dmax; subject: O=C1CCC(N2Cc3cc(C[C@H]4CCCC[C@@H]4NC4C[C@H]5COC[C@H]5C4)ccc3C2=O)C(=O)N1 (some centres unmarked) [Example 198]
Result: 97

Task: Dmax for O=C1CCC(N2Cc3cc(C[C@H]4CCCC[C@@H]4NC4CC5CCC4O5)ccc3C2=O)C(=O)N1 (some centres unmarked) [Example 193] ?
Result: 96

Task: Bench note: what Dmax did CC(CF)N[C@H]1CCCC[C@@H]1Cc1ccc2c(c1)CN(C1CCC(=O)NC1=O)C2=O (some centres unmarked) [Example 127] show?
Result: 68

Task: Query (compound): O=C1CCC(N2Cc3cc(C[C@H]4CCCC[C@@H]4NC4CCCC4)ccc3C2=O)C(=O)N1 (some centres unmarked) [Example 52] ; field requested: Dmax
Result: 96

Task: Recorded Dmax for N#CCC1CCC(N[C@H]2CCCC[C@@H]2Cc2ccc3c(c2)CN(C2CCC(=O)NC2=O)C3=O)CC1 (single isomer, unassigned) [Example 269] , please?
Result: 96

Task: Consider the compound shown here: O=C1CCC(N2Cc3cc(C[C@H]4CCCCC[C@@H]4NC4CCC(F)(F)CC4)ccc3C2=O)C(=O)N1 (some centres unmarked) [Example 340] What is its recorded Dmax?
Result: 55

Task: Find the recorded Dmax belonging to O=C1CCC(N2Cc3cc(C[C@H]4CCCC[C@@H]4NC4CCCOCC4)ccc3C2=O)C(=O)N1 (some centres unmarked) [Example 197] and report it.
Result: 97

New cases:
Task: Fill in: Dmax of O=C1CCC(N2Cc3cc(C[C@H]4CCCC[C@@H]4NCc4nccs4)ccc3C2=O)C(=O)N1 (some centres unmarked) [Example 37] is ___
Result: 69

Task: Param item = COC1CCC(N[C@H]2CCCO[C@@H]2Cc2ccc3c(c2F)CN(C2CCC(=O)NC2=O)C3=O)CC1 (some centres unmarked) [Example 159] ; retrieve measured Dmax.
Result: 100

Task: Report Dmax for O=C1CCC(N2Cc3c(ccc(C[C@H]4OCCC[C@@H]4NC4CCC(C(F)F)CC4)c3F)C2=O)C(=O)N1 (single isomer, unassigned) [Example 282] please.
Result: 95

Task: Record request: Dmax value, item [2H]C1(N[C@H]2CCCC[C@@H]2Cc2ccc3c(c2F)CN(C2CCC(=O)NC2=O)C3=O)CCC(F)(F)CC1 (some centres unmarked) [Example 209]
Result: 97

###

Target: IKZF2 (Homo sapiens, UniProt Q96SW2+Q9UKS7)
Assay: HEK293 HiBiT in vitro degradation of IKZF2
Format: cell-based
Parameters: expressed in transfected cells
Conditions: HEK293 HiBiT, 18-24 hr incubation, normalized to DMSO control; read-out: IKZF2 EC50
Readout Type: DC50 (nM)
Could you give me the number in nM? Just the number is fine.

Task: Quick check: DC50 of O=C1CCC(N2Cc3cc(C[C@H]4OCCC[C@@H]4NC4CCCCC4)ccc3C2=O)C(=O)N1 (some centres unmarked) [Example 95] ?
Result: 16

Task: # query: DC50 of entry O=C1CCC(N2Cc3cc(C[C@H]4CCCC[C@@H]4NC4CCOc5ccccc54)ccc3C2=O)C(=O)N1 (some centres unmarked)
Result: 24

Task: Name the reported DC50 value associated with the compound O=C1CCC(N2Cc3c(ccc(C[C@H]4OCCC[C@@H]4NCC4CCC4)c3F)C2=O)C(=O)N1 (some centres unmarked)
Result: 26

New cases:
Task: # lookup: DC50 of CC(N[C@H]1CCCC[C@@H]1Cc1ccc2c(c1)CN(C1CCC(=O)NC1=O)C2=O)C1(C(F)F)CC1 (some centres unmarked) [Example 311]
Result: 11

Task: Give its DC50 value. Item: O=C1CCC(N2Cc3c(ccc(C[C@H]4CCCC[C@@H]4NC4CCOC4)c3F)C2=O)C(=O)N1 (some centres unmarked) [Example 189]
Result: 2

Task: Field request: DC50 | item: O=C1CCC(N2Cc3cc(C[C@H]4CCCC[C@@H]4NC4CCc5ccccc54)ccc3C2=O)C(=O)N1 (some centres unmarked)
Result: 4

Task: May I ask what DC50 has been recorded for O=C1CCC(N2Cc3cc(C[C@H]4OCCC[C@@H]4NC4CCC(C(F)(F)F)CC4)ccc3C2=O)C(=O)N1 (single isomer, unassigned) [Example 356] ?
Result: 49

###

Parameter log10 of DC50: see the listing below.
Target: IKZF2 (Homo sapiens, UniProt Q96SW2+Q9UKS7)
Experiment: HEK293 HiBiT in vitro degradation of IKZF2
Assay type: cell-based
Set-up: expressed in transfected cells
Conditions: HEK293 HiBiT, 18-24 hr incubation, normalized to DMSO control; read-out: IKZF2 EC50
Note: values are log10 of DC50 expressed in nM.

Check out these entries, answers already filled in.
Task: Quick one: log10 of DC50 for O=C1CC[C@H](N2Cc3c(ccc(C[C@H]4OCCC[C@@H]4NC4CCC(F)(F)CC4)c3F)C2=O)C(=O)N1 (single isomer, unassigned) [Example 332] ?
Result: 0.78

Task: Bench note: what log10 of DC50 did C[C@]1(O)CC[C@H](NC2CCC(F)(F)CC2)[C@@H](Cc2ccc3c(c2)CN(C2CCC(=O)NC2=O)C3=O)C1 (some centres unmarked) [Example 155] show?
Result: 1.48

Task: Which log10 of DC50 reading was recorded for the compound CCCCN[C@H]1CCCC[C@@H]1Cc1ccc2c(c1)CN(C1CCC(=O)NC1=O)C2=O (some centres unmarked) [Example 128] ?
Result: 1.26

Task: Any idea what its log10 of DC50 is? The compound is O=C1CCC(N2Cc3cc(C[C@H]4CCCC[C@@H]4NCc4cncs4)ccc3C2=O)C(=O)N1 (some centres unmarked) [Example 6]
Result: 1.48

Task: Look up log10 of DC50: CC(N[C@H]1CCCC[C@@H]1Cc1ccc2c(c1)CN(C1CCC(=O)NC1=O)C2=O)C1CCC1 (some centres unmarked) [Example 103]
Result: 0.48

Task: Look at this compound and give its reported log10 of DC50. O=C1CCC(N2Cc3cc(C[C@H]4CCCC[C@@H]4NCc4ccccc4)ccc3C2=O)C(=O)N1 (single isomer, unassigned) [Example 25]
Result: 1.36

New cases:
Task: log10 of DC50 for O=C1CCC(N2Cc3cc(C[C@H]4CCCC[C@@H]4NCc4ccccn4)ccc3C2=O)C(=O)N1 (some centres unmarked) [Example 45] ?
Result: 2.12

Task: Please give the measured log10 of DC50 for this compound: O=C1CCC(N2Cc3cc(C[C@H]4CCCC[C@@H]4NC4CC5(COC5)C4)ccc3C2=O)C(=O)N1 (some centres unmarked) [Example 80]
Result: 1.52

Task: Fill blank: measured log10 of DC50 of the compound O=C1CCC(N2Cc3c(ccc(C[C@H]4OCCC[C@@H]4NC4CCOC4)c3F)C2=O)C(=O)N1 (single isomer, unassigned) [Example 296] is ____.
Result: 2.02

Task: Look up log10 of DC50 for this compound: CC1(C)CC(N[C@H]2CCCO[C@@H]2Cc2ccc3c(c2F)CN(C2CCC(=O)NC2=O)C3=O)CCO1 (some centres unmarked) [Example 222]
Result: 1.26

Task: Requested read-out: log10 of DC50. Entry: CC(N[C@H]1CCCC[C@@H]1Cc1ccc2c(c1)CN(C1CCC(=O)NC1=O)C2=O)C1CC1 (some centres unmarked) [Example 102]
Result: 0.78

Task: Quick one: log10 of DC50 of O=C1CCC(N2Cc3c(ccc(C[C@H]4CCCC[C@@H]4NCC45CC(C4)C5)c3F)C2=O)C(=O)N1 (some centres unmarked) [Example 96] ?
Result: 0.95

Task: # get_value(readout='log10 of DC50', item= O=C1CCC(N2Cc3cc(C[C@H]4CCCC[C@@H]4NC4CCC5(CCO5)CC4)ccc3C2=O)C(=O)N1 (some centres unmarked) [Example 172] )
Result: 1.28

Task: Entry under review: O=C1CCC(N2Cc3cc(C[C@H]4CCCC[C@@H]4NC4CCc5[nH]nc(C(F)(F)F)c5C4)ccc3C2=O)C(=O)N1 (some centres unmarked) [Example 352] . Reported log10 of DC50?
Result: 0.48
